Recorded values, source patent US6689806B1.

target: Her2 (Homo sapiens, UniProt P04626); construct: fused on or other part: P00533 (Epidermal growth factor receptor); experiment: EGF-induced Her2-driven BrdU incorporation; format: cell-based; conditions: Table 7; 3T3 cells with EGF-R/Her2 chimeric receptor, EGF 2 nM; read-out: BrdU DNA syn. HER2 IC50
Sequence (P04626 676-1255 limits assumed): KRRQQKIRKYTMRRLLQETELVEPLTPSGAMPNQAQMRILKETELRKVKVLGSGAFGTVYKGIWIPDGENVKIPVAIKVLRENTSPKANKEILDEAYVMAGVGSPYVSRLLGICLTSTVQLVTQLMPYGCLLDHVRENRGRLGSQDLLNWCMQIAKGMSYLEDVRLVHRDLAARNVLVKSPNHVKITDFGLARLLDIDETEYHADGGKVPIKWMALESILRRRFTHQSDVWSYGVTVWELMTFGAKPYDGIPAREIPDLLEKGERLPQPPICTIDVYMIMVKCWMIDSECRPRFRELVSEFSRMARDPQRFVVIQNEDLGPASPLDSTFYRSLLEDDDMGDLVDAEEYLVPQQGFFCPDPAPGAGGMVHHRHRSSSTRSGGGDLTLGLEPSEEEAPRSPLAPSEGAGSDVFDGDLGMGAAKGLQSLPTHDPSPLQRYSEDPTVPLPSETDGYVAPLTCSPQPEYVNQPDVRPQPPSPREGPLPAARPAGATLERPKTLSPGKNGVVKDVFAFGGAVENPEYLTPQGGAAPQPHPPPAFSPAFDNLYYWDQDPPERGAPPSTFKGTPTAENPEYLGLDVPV
recorded_metric: IC50 (µM)

Recorded IC50, per entry:
structure_smiles_string	assay_target	measurement_units	observed
CC(C)c1cccc(OCCc2cccc3c2CC(=O)N3)c1	Her2 (Homo sapiens, UniProt P04626)	µM	28.9
O=C1Cc2c(CCOc3cccc(-c4ccccc4)c3)cccc2N1	Her2 (Homo sapiens, UniProt P04626)	µM	12.1
Cc1[nH]c(/C=C2\C(=O)Nc3cccc(CCO)c32)c(C)c1CCCN(C)C	Her2 (Homo sapiens, UniProt P04626)	µM	4.2
Cc1[nH]c(/C=C2\C(=O)Nc3cccc(CCOc4cccc(C(C)C)c4)c32)c(C)c1CCCN(C)C	Her2 (Homo sapiens, UniProt P04626)	µM	33.8
Cc1cccc(/C=C2\C(=O)Nc3cccc(CCO)c32)n1	Her2 (Homo sapiens, UniProt P04626)	µM	6.6

[I] CC(C)c1ccccc1OCCc1cccc2c1CC(=O)N2
[II] O=C1Nc2cccc(CCO)c2/C1=C/c1ccccn1
Lab notebook, comparison: I versus II , higher IC50 goes to which? Selection: enter the item's label.
I

[A] O=C1Nc2cccc(CCO)c2/C1=C\c1ccc(Br)cc1
[B] COc1ccc(/C=C2\C(=O)Nc3cccc(CCO)c32)cc1-c1cccs1
// compare: A vs B , metric IC50, want the smaller Selection: enter the item's label.
B
